- assayed-system: Signal transducer and activator of transcription 3 (Homo sapiens)
- assay-text: Inhibition of IL-6-induced STAT3 pathway in human HepG2 cells at 10 uM by luciferase reporter gene assay
- Type: cell-based
Please use yes whenever inhibition is not below 30%, and no whenever it is.

Is reported inhibition greater than or equal to 30% here: Fc1ccc(COc2ccc(Cl)cc2CNCC2CCCO2)cc1 (centres undefined)
no

Is reported inhibition greater than or equal to 30% here: OCCNCc1cc(Br)ccc1OCc1ccc(Cl)cc1
yes

Is reported inhibition greater than or equal to 30% here: NC(=O)COc1ccc(Cl)cc1CNCc1ccc(F)cc1
no

Is reported inhibition greater than or equal to 30% here: NC(=O)COc1ccc(Cl)cc1CNCCc1ccccc1
no

Is reported inhibition greater than or equal to 30% here: Cc1cccc(NCc2cc(Br)ccc2OCc2ccc(Cl)cc2)c1C
yes

Is reported inhibition greater than or equal to 30% here: NC(=O)COc1ccc(Cl)cc1CNCCN1CCOCC1
no

Is reported inhibition greater than or equal to 30% here: Oc1ccc(NCc2cc(Cl)ccc2OCc2ccc(Cl)cc2)cc1
yes

Is reported inhibition greater than or equal to 30% here: COc1cc(/C=C/C(=O)CC(=O)/C=C/c2ccc(O)c(OC)c2)ccc1O
yes

Is reported inhibition greater than or equal to 30% here: COCCNCc1ccc(OCc2cc(Cl)cc(Cl)c2)cc1
no

Is reported inhibition greater than or equal to 30% here: COc1ccc(Cl)cc1CNCc1ccc2c(c1)OCO2
no

Is reported inhibition greater than or equal to 30% here: Clc1ccc(COc2ccccc2CNCc2ccccn2)cc1
no

Is reported inhibition greater than or equal to 30% here: NS(=O)(=O)c1ccc(NCc2cc(Cl)ccc2OCc2ccccc2)cc1
yes

Is reported inhibition greater than or equal to 30% here: Clc1ccc(OCc2ccccc2Cl)c(CNCc2ccccc2)c1
yes

Is reported inhibition greater than or equal to 30% here: O=C(O)c1ccc(CNCc2ccccc2OCc2ccccc2)cc1
no
